Experiment: Plasma pharmacokinetics with loading dose and weekly or twice weekly maintenance dosing, fed (Example 5)
Assay type: in vivo, human
Details: human, plasma, oral, 150 mg, Panel IV (150 mg BID Days 1-2, then 150 mg Q3D/Q4D; SF2a/b, fed), Day 17; n = 3; read-out: Mean Cmax (SD)
measurement-name: Cmax (ng/mL)
Answers are plain numbers, in ng/mL.

Exercise: Identify measured Cmax corresponding to COc1cc(NC(C(=O)c2c[nH]c3ccc(OC(F)(F)F)cc23)c2ccc(Cl)cc2OC)cc(S(C)(=O)=O)c1 (stereo not shown) [Compound (a)]
Solution: 1210

----------
Assay: Effect of food on plasma pharmacokinetics after single oral dose of SF2a/b (Example 2)
Assay type: in vivo, human
Settings: both sexes, human, plasma, oral, 50 mg, Treatment I: single 50 mg (SF2a), fed, standardized breakfast; read-out: t1/2, term, Median (converted)
measurement-name: half-life (h)
Numbers only, in h.

Exercise: Identify measured half-life corresponding to COc1cc(NC(C(=O)c2c[nH]c3ccc(OC(F)(F)F)cc23)c2ccc(Cl)cc2OC)cc(S(C)(=O)=O)c1 (stereo not shown) [Compound (a)]
Solution: 159

----------
Test: Effect of food on plasma pharmacokinetics after single oral dose of SF2a/b (Example 2)
Format: in vivo, human
Settings: both sexes, human, plasma, oral, 800 mg, 800 mg SF2b, fed, high-fat, high-calorie breakfast; read-out: AUClast, Geometric LS Means Treatment K
measurement-name: AUC(0-t)
Note: a bare number is incomplete; add the unit.

Exercise: Identify measured AUC(0-t) corresponding to COc1cc(NC(C(=O)c2c[nH]c3ccc(OC(F)(F)F)cc23)c2ccc(Cl)cc2OC)cc(S(C)(=O)=O)c1 (stereo not shown)
Solution: 421 µg·h/mL

----------
Test: Effect of food on plasma pharmacokinetics after single oral dose of SF2a/b (Example 2)
Format: in vivo, human
Conditions: both sexes, human, plasma, oral, 50 mg, Treatment I: single 50 mg (SF2a), fed, standardized breakfast; read-out: AUClast, Mean
measurement-name: AUC(0-t)
Note: a bare number is incomplete; add the unit.

Exercise: Identify measured AUC(0-t) corresponding to COc1cc(NC(C(=O)c2c[nH]c3ccc(OC(F)(F)F)cc23)c2ccc(Cl)cc2OC)cc(S(C)(=O)=O)c1 (stereo not shown) [Compound (a)]
Solution: 22900 ng·h/mL

----------
Experiment: Effect of food on plasma pharmacokinetics after single oral dose of SF2a/b (Example 2)
Assay type: in vivo, human
Settings: both sexes, human, plasma, oral, 50 mg, Treatment H: single 50 mg (SF2a), fasted; read-out: AUC∞, Median
Method: The effect of food on the pharmacokinetics (PK) of Compound (a) was assessed in healthy participants after a single oral dose of SF2a/b, described in Example 1, administered at different dose levels in a randomized single dose, 2-period crossover study. […]
measurement-name: AUC(0-inf)

Exercise: Identify measured AUC(0-inf) corresponding to COc1cc(NC(C(=O)c2c[nH]c3ccc(OC(F)(F)F)cc23)c2ccc(Cl)cc2OC)cc(S(C)(=O)=O)c1 (stereo not shown)
Solution: 18800 ng·h/mL

----------
Test: Plasma pharmacokinetics with loading dose and weekly or twice weekly maintenance dosing, fed (Example 5)
Format: in vivo, human
Conditions: human, plasma, oral, 150 mg, Panel IV (150 mg BID Days 1-2, then 150 mg Q3D/Q4D; SF2a/b, fed), Day 10; read-out: Mean Cmax (SD)
measurement-name: Cmax (ng/mL)
Answers are plain numbers, in ng/mL.

Exercise: Identify measured Cmax corresponding to COc1cc(NC(C(=O)c2c[nH]c3ccc(OC(F)(F)F)cc23)c2ccc(Cl)cc2OC)cc(S(C)(=O)=O)c1 (stereo not shown) [Compound (a)]
Solution: 1230
